// data source = PubChem BioAssay

Test: reversal of MRP1-mediated doxorubicin resistance, pilot screen, H69AR cells, doxorubicin co-treatment (AID 601)
Details: H69AR cells + 2 uM doxorubicin, CellTiter-Glo, 72 h; measured here: viability with 2 uM doxorubicin; at 10 µM; stronger effect = lower value
Labelling: viability reported below 90% becomes satisfied; at or above becomes not satisfied.

Task: Below 90% on viability? Entry CCn1c(SCC(=O)N2c3ccccc3CCc3ccccc32)nc2c1c(=O)n(C)c(=O)n2C
Result: not satisfied

Task: Below 90% on viability? Entry COc1ccc(N2C(=O)C(Cl)=C(N3CCCC3)C2=O)cc1
Result: satisfied

Task: Below 90% on viability? Entry CCOC(=O)c1cnn(-c2ncnc3c2cnn3Cc2ccccc2)c1N
Result: satisfied

Task: Below 90% on viability? Entry Cc1nc(NC(=O)C23CCC(C)(C(=O)O2)C3(C)C)sc1C (stereo not drawn)
Result: satisfied

Task: Below 90% on viability? Entry CCCC(=O)Nc1cc(-c2nnc(OC)c3ccccc23)ccc1N1CCOCC1
Result: not satisfied

Task: Below 90% on viability? Entry Cc1nc(C)n(C(C)CC(=O)O)n1 (stereo not drawn)
Result: not satisfied

Task: Below 90% on viability? Entry CCOc1cc(C(=O)N(C)Cc2cc3ccccc3[nH]c2=O)cc(OCC)c1OCC
Result: not satisfied

Task: Below 90% on viability? Entry CC(O)CN(Cc1cccc(Cl)c1)CC(C)O (stereo not drawn)
Result: not satisfied

Task: Below 90% on viability? Entry Cc1cccc(-n2c(N)c(C(=O)N3CCN(C)CC3)sc2=S)c1
Result: satisfied

Task: Below 90% on viability? Entry Cc1ccc2c(c1)N(CC(=O)Nc1ccc3c(c1)OCCO3)C(=O)CO2
Result: not satisfied

Task: Below 90% on viability? Entry COc1ccc2c(c1)CCc1c(C(=O)N3CC4(C)CC3CC(C)(C)C4)noc1-2 (stereo not drawn)
Result: satisfied

Task: Below 90% on viability? Entry Cc1ccc2c(c1)NC(=O)C(CC(=O)NCCCN1CCN(c3cc(Cl)ccc3C)CC1)O2 (stereo not drawn)
Result: satisfied

Task: Below 90% on viability? Entry CC1(C)OC(=O)N(c2cccnc2)C1(C)O (stereo not drawn)
Result: satisfied

Task: Below 90% on viability? Entry CCN(CC)CCNC(=O)c1ccc(N2CCCCC2)c(NS(=O)(=O)c2ccc(C)cc2)c1
Result: satisfied

Task: Below 90% on viability? Entry CN(CC(O)COCc1cccs1)C1CCCCC1 (stereo not drawn)
Result: not satisfied

Task: Below 90% on viability? Entry COc1cccc(NC(=O)N(CCCN2CCOCC2)C(C)c2cc3cccc(OC)c3o2)c1 (stereo not drawn)
Result: not satisfied

---

Test: HUVEC growth inhibition – cell-based, human, primary screen (AID 575);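 also: 100% = median of untreated cell wells with 0.1% DMSO on each plate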
Settings: HUVEC proliferation, CellTiter-Glo luminescence, 72 h; at 10 µM; stronger effect = lower value
Consider the following compounds; for each one, report its viability.
Field format: number, assumed %, no unit text.

Per the records, this compound ( Cn1c(=O)c2c(nc(N3CCN(c4ccccc4)CC3)n2CCCc2ccccc2)n(C)c1=O ) has viability equal to 90.6

Per the records, this compound ( CCOC(=O)c1sc2nc(SCC(=O)NCc3ccco3)n(Cc3ccccc3)c(=O)c2c1C ) has viability equal to 82

Per the records, this compound ( O=C(Nc1cccc(F)c1)N1CC=C(n2c(=O)[nH]c3ccccc32)CC1 ) has viability equal to 93.4

Per the records, this compound ( COC(=O)c1ccc(Oc2nc(NC(C)C)nc(N(C)C)n2)cc1 ) has viability equal to 97.2

Per the records, this compound ( O=S1(=O)C=CC(Nc2cccc(Cl)c2)C1 (stereo unspecified) ) has viability equal to 76.3

Per the records, this compound ( CCOC(=O)c1sc(NC(=O)CSc2nnc(-c3ccco3)n2CC)c(C(=O)OCC)c1C ) has viability equal to 77.5

Per the records, this compound ( COc1ccc(-n2ncc3c(NCc4ccc5c(c4)OCO5)ncnc32)cc1 ) has viability equal to 49.8

Per the records, this compound ( CC1=C(C(=O)NCc2ccccn2)C2(CCC(C)CC2)OC1=O (stereo unspecified) ) has viability equal to 103

Per the records, this compound ( O=C(Cc1cccs1)N(c1ccccc1)C1C=CS(=O)(=O)C1 (stereo unspecified) ) has viability equal to 107

Per the records, this compound ( Cc1cc(NC(=O)C23CCC(C)(C(=O)O2)C3(C)C)no1 (stereo unspecified) ) has viability equal to 96.7

Per the records, this compound ( COc1ccccc1NC(=O)N1c2ccc(F)cc2CCC1C (stereo unspecified) ) has viability equal to 83.3

Per the records, this compound ( CCOC(=O)C1CCN(CC(=O)Nc2c(C(=O)OC)[nH]c3ccc(Cl)cc23)CC1 ) has viability equal to 65.5

Per the records, this compound ( CC1=Nn2c(nnc2-c2ccc(F)cc2)SC1 ) has viability equal to 97

Per the records, this compound ( CCN(CC)CCCN1C(=O)C(O)=C(C(C)=O)C1c1cccc(OC)c1 (stereo unspecified) ) has viability equal to 101

Per the records, this compound ( Cc1cc(C)n(CC(=O)NC2CCCCC2)n1 ) has viability equal to 114

Per the records, this compound ( CSc1ncc(Cl)c(C(=O)Nc2ccc(S(=O)(=O)N3CCOCC3)cc2)n1 ) has viability equal to 97

Per the records, this compound ( Cc1cccc(N2CCN(C(=O)c3ccc(NS(=O)(=O)c4c(C)noc4C)cc3)CC2)c1C ) has viability equal to 68.2

Per the records, this compound ( Cc1cccc(N2C(=O)CC(N(C(=O)c3ccco3)c3cccc(C)c3)C2=O)c1 (stereo unspecified) ) has viability equal to 98.8

Per the records, this compound ( Cc1cc(C(F)(F)F)c2c(C)nn(CCc3nn[nH]n3)c2n1 ) has viability equal to 91.4

Per the records, this compound ( O=C(Nc1ccc(S(=O)(=O)N2CCc3ccccc32)cc1)c1ccc2c(c1)OCO2 ) has viability equal to 76.7

Per the records, this compound ( CCOC(=O)N1CCC(N(C(=O)Nc2ccc(Cl)c(Cl)c2)C(C)CC)CC1 (stereo unspecified) ) has viability equal to 79.3

Per the records, this compound ( O=C(Nc1ccc(F)cc1)N(CCCN1CCOCC1)Cc1cc2cc3c(cc2[nH]c1=O)OCO3 ) has viability equal to 105

Per the records, this compound ( CS(=O)(=O)N(CC(=O)NCc1ccncc1)Cc1ccc(Cl)cc1 ) has viability equal to 101

Per the records, this compound ( COc1cc(C(=O)OC(C)CN2CCCC2)cc(OC)c1OC (stereo unspecified) ) has viability equal to 98.1

Per the records, this compound ( O=C(CCn1c(=O)oc2ccccc21)N1CCCCCC1 ) has viability equal to 99

Per the records, this compound ( CCn1c(C(=O)N2CCCC(C(=O)O)C2)cc2sccc21 (stereo unspecified) ) has viability equal to 101

Per the records, this compound ( CCn1c(CNc2ccc(OC)cc2)nnc1SCC(=O)c1ccc(OC)cc1 ) has viability equal to 68.8

Per the records, this compound ( COc1ccc(CCNC(=O)c2cc(C(C)C)on2)cc1OC ) has viability equal to 96.6

Per the records, this compound ( COc1ccc(OCCN2C(=O)NC(C)(c3ccc(C)cc3)C2=O)cc1 (stereo unspecified) ) has viability equal to 101

Per the records, this compound ( CSc1ccccc1C(=O)NC1CC2CCC1C2 (stereo unspecified) ) has viability equal to 92.9

Per the records, this compound ( c1ccc2c(c1)nc(-c1ccncc1)n1nnnc21 ) has viability equal to 93.5

Per the records, this compound ( COc1ccccc1OCc1ccc(C(=O)Nc2ccncc2)o1 ) has viability equal to 84.9

Per the records, this compound ( CN(C)CCCN1c2ccccc2Sc2ccc(Cl)cc21 ) has viability equal to 2.62

Per the records, this compound ( CN/C=C1\C(=O)C(C)(C)Oc2ccc3ccc(=O)oc3c21 ) has viability equal to 91.5

Per the records, this compound ( O=C(NCC1CCCO1)C1CCC(CNS(=O)(=O)c2ccccc2)CC1 (stereo unspecified) ) has viability equal to 81.6

Per the records, this compound ( O=C(CCSc1ccccc1)Nc1ccc(S(=O)(=O)N2CCOCC2)cc1 ) has viability equal to 81.2

Per the records, this compound ( CCC(C)(C)n1nnnc1C(c1ccccc1OC)N1CCSCC1 (stereo unspecified) ) has viability equal to 99.6

Per the records, this compound ( CC(=O)N1C(=O)c2cccc3cccc(c23)C(=O)N1C(C)=O ) has viability equal to 96.1

Per the records, this compound ( C=CCSc1nnc(NC(=O)c2ccc(S(=O)(=O)NCC3CCCO3)cc2)s1 (stereo unspecified) ) has viability equal to 84.3

Per the records, this compound ( O=C(COC(=O)c1ccccc1C(=O)c1ccccc1)c1ccco1 ) has viability equal to 105

Per the records, this compound ( CCOc1ccc(CNc2ccc3c(c2)ncn3C)cc1 ) has viability equal to 106

Per the records, this compound ( CN1CCCc2cc(C#N)c(=O)[nH]c21 ) has viability equal to 99.7

Per the records, this compound ( COc1ccc2c(C)nc(Nc3nc(C)cc(C)n3)nc2c1 ) has viability equal to 114

Per the records, this compound ( Cc1cc(C)nc(SCCS(=O)Cc2ccc(Cl)cc2)n1 (stereo unspecified) ) has viability equal to 99.4

Per the records, this compound ( O=C(CSc1nnc(C2COc3ccccc3O2)o1)N1CCCc2ccccc21 (stereo unspecified) ) has viability equal to 60.9

Per the records, this compound ( Cc1nn(C)cc1/C=N/O ) has viability equal to 95.8
